Test system: Rats (Lewis)
test_description: Estimated i.v. LD50, rats (systemic toxicity)
Format: in vivo
assay_conditions: 300 mg I/ml, 37° C., injection rate 5 ml/min
Protocol: Compounds VIII and XVI were tested from stability, solubility, osmolality, viscosity and systemic toxicity. *All at 300 mg I/ml concentration and 37° C. Injection rates 1 ml/min in mice and 5 ml/min in rats. °Ref. Salvesen, S. in Acta Radiol. Suppl. 362, p. 73, 1980
assay_metric: Estimated i.v. LD50

>  <compound>
CC(=O)N(CC(O)CO)c1c(I)c(C(=O)NCC(O)CO)c(I)c(C(=O)NCC(O)CO)c1I (centres unmarked) [Iohexol]

>  <tested_system>
Rats (Lewis)

>  <assay_metric>
Estimated i.v. LD50

>  <meas_value>
13.5-15 gI/kg

$$$$
>  <compound>
C[C@H](O)C(=O)Nc1c(I)c(C(=O)NC(CO)CO)c(I)c(C(=O)NC(CO)CO)c1I [Iopamidol]

>  <tested_system>
Rats (Lewis)

>  <assay_metric>
Estimated i.v. LD50

>  <meas_value>
12.2-13 gI/kg

$$$$
>  <compound>
CNC(=O)c1c(I)c(C(=O)N[C@@H](CO)[C@H](O)CO)c(I)c(N(CC(O)CO)C(C)=O)c1I (relative stereo) [XVI]

>  <tested_system>
Rats (Lewis)

>  <assay_metric>
Estimated i.v. LD50

>  <meas_value>
13.5-14 gI/kg

$$$$
>  <compound>
CC(=O)N(CC(O)CO)c1c(I)c(C(=O)NCCO)c(I)c(C(=O)NCC(O)CO)c1I (centres unmarked) [VIII]

>  <tested_system>
Rats (Lewis)

>  <assay_metric>
Estimated i.v. LD50

>  <meas_value>
14-16.5 gI/kg

$$$$
>  <compound>
COCC(=O)Nc1c(I)c(C(=O)NCC(O)CO)c(I)c(C(=O)N(C)CC(O)CO)c1I (centres unmarked) [Iopromide]

>  <tested_system>
Rats (Lewis)

>  <assay_metric>
Estimated i.v. LD50

>  <meas_value>
10-11.5 gI/kg

$$$$

###

Tested on: Mice (CD-1)
test_description: Estimated i.v. LD50, mice (systemic toxicity)
Type: in vivo
assay_conditions: 300 mg I/ml, 37° C., injection rate 1 ml/min

>  <molecule>
CNC(=O)c1c(I)c(C(=O)N[C@@H](CO)[C@H](O)CO)c(I)c(N(CC(O)CO)C(C)=O)c1I (relative stereo)

>  <Estimated i.v. LD50>
12-13 gI/kg

$$$$
>  <molecule>
C[C@H](O)C(=O)Nc1c(I)c(C(=O)NC(CO)CO)c(I)c(C(=O)NC(CO)CO)c1I

>  <Estimated i.v. LD50>
17-18 gI/kg

$$$$
>  <molecule>
CC(=O)N(CC(O)CO)c1c(I)c(C(=O)NCCO)c(I)c(C(=O)NCC(O)CO)c1I (centres unmarked)

>  <Estimated i.v. LD50>
16-17 gI/kg

$$$$
>  <molecule>
COCC(=O)Nc1c(I)c(C(=O)NCC(O)CO)c(I)c(C(=O)N(C)CC(O)CO)c1I (centres unmarked) [Iopromide]

>  <Estimated i.v. LD50>
11.5-13.0 gI/kg

$$$$
>  <molecule>
CC(=O)N(CC(O)CO)c1c(I)c(C(=O)NCC(O)CO)c(I)c(C(=O)NCC(O)CO)c1I (centres unmarked) [Iohexol]

>  <Estimated i.v. LD50>
16-17 gI/kg

$$$$

The reported numbers originate from patent US5035877A.
